Values from ChEMBL document CHEMBL2385063

Target: Prostaglandin D2 receptor 2 (Homo sapiens) (UniProt Q9Y5Y4)
Assay: Selectivity factor, ratio of IC50 for recombinant human CRTH2 receptor in presence of human serum albumin to IC50 for recombinant human CRTH2 receptor in absence of human serum albumin
Exercise: for every item that follows, state its recorded Ratio IC50.
Give the figure only, with no unit attached.

Query: Any idea what Ratio IC50 was measured for O=C(O)Cn1c2c(c3ccccc31)CN(C(=O)c1cccc3ccccc13)CC2 ?
Reply: 47

Query: Any idea what Ratio IC50 was measured for O=C(O)Cn1c2c(c3cc(F)cc(Cl)c31)CN(C(=O)c1cccc3ccccc13)CC2 ?
Reply: 7

Query: Any idea what Ratio IC50 was measured for Cc1ccc2c(c1)c1c(n2CC(=O)O)CCN(C(=O)c2cccc3ccccc23)C1 ?
Reply: 38

Query: Any idea what Ratio IC50 was measured for CCc1ccc(-c2ccc(C(=O)N3CCc4c(c5cccc(Cl)c5n4CC(=O)O)C3)cc2)cc1 ?
Reply: 4

Query: Any idea what Ratio IC50 was measured for O=C(O)Cn1c2c(c3cc(Cl)ccc31)CN(C(=O)c1cccc3ccccc13)CC2 ?
Reply: 16

Query: Any idea what Ratio IC50 was measured for O=C(O)Cn1c2c(c3cc(F)ccc31)CN(C(=O)c1cccc(Cl)c1)CC2 ?
Reply: 7

Query: Any idea what Ratio IC50 was measured for O=C(O)Cn1c2c(c3cc(F)ccc31)CN(C(=O)c1cccs1)CC2 ?
Reply: 3

Query: Any idea what Ratio IC50 was measured for O=C(O)Cn1c2c(c3ccccc31)CN(C(=O)c1cccc(Cl)c1)CC2 ?
Reply: 3

Query: Any idea what Ratio IC50 was measured for O=C(O)Cn1c2c(c3cc(F)ccc31)CN(C(=O)CCc1cccc3ccccc13)CC2 ?
Reply: 3

Query: Any idea what Ratio IC50 was measured for CCc1ccc(-c2ccc(C(=O)N3CCc4c(c5ccccc5n4CC(=O)O)C3)cc2)cc1 ?
Reply: 2

Query: Any idea what Ratio IC50 was measured for O=C(O)Cn1c2c(c3cc(F)cc(Cl)c31)CN(C(=O)c1cccc(Cl)c1)CC2 ?
Reply: 1

Query: Any idea what Ratio IC50 was measured for O=C(O)Cn1c2c(c3cc(C(F)(F)F)ccc31)CN(C(=O)c1ccccc1)CC2 ?
Reply: 6

Query: Any idea what Ratio IC50 was measured for O=C(O)Cn1c2c(c3cc(F)ccc31)CN(C(=O)Cc1c[nH]c3ccccc13)CC2 ?
Reply: 7

Query: Any idea what Ratio IC50 was measured for O=C(O)Cn1c2c(c3cc(F)ccc31)CN(C(=O)c1cccc3ccccc13)CC2 [SETIPIPRANT] ?
Reply: 57

Query: Any idea what Ratio IC50 was measured for O=C(O)Cn1c2c(c3ccccc31)CN(C(=O)c1ccccc1)CC2 ?
Reply: 1

Query: Any idea what Ratio IC50 was measured for O=C(O)Cn1c2c(c3cc(F)ccc31)CN(C(=O)Cc1cccc3ccccc13)CC2 ?
Reply: 45

Query: Any idea what Ratio IC50 was measured for O=C(O)Cn1c2c(c3cc(C(F)(F)F)ccc31)CN(C(=O)c1cccc3ccccc13)CC2 ?
Reply: 6

====

Target: Prostaglandin D2 receptor 2 (Homo sapiens, UniProt Q9Y5Y4)
Sequence (Q9Y5Y4 whole entry): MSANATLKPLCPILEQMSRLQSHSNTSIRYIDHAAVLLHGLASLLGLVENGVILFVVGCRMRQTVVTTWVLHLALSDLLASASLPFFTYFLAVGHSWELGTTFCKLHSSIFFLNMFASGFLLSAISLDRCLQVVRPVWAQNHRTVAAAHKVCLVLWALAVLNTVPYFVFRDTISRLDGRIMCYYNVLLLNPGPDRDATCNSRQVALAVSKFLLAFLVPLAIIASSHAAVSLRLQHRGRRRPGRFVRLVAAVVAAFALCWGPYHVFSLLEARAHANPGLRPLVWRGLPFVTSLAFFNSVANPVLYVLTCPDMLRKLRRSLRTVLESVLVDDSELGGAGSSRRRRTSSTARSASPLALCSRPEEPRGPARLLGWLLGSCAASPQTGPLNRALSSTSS
Test: Displacement of [3H]PGD2 from recombinant human CRTH2 receptor expressed in HEK293 cell membranes after 90 mins by scintillation counting analysis in presence of human serum albumin
Exercise: for every item that follows, state its recorded pIC50.
// field semantics: pIC50 = negative decimal log of concentration (mol/L)

Query: Any idea what pIC50 was measured for Cc1ccc2c(c1)c1c(n2CC(=O)O)CCN(C(=O)c2cccc3ccccc23)C1 ?
Reply: 6.72

Query: Any idea what pIC50 was measured for O=C(O)Cn1c2c(c3ccccc31)CN(C(=O)c1cccc(Cl)c1)CC2 ?
Reply: 7.52

Query: Any idea what pIC50 was measured for O=C(O)Cn1c2c(c3cc(F)ccc31)CN(C(=O)Cc1cccc3ccccc13)CC2 ?
Reply: 6.74

Query: Any idea what pIC50 was measured for O=C(O)Cn1c2c(c3ccccc31)CN(C(=O)c1cccc3ccccc13)CC2 ?
Reply: 6.38

Query: Any idea what pIC50 was measured for O=C(O)Cn1c2c(c3cc(F)ccc31)CN(C(=O)c1cccc3ccccc13)CC2 [SETIPIPRANT] ?
Reply: 6.47

Query: Any idea what pIC50 was measured for O=C(O)Cn1c2c(c3cc(F)ccc31)CN(C(=O)c1cccs1)CC2 ?
Reply: 7.92

Query: Any idea what pIC50 was measured for O=C(O)Cn1c2c(c3cc(F)cc(Cl)c31)CN(C(=O)c1cccc(Cl)c1)CC2 ?
Reply: 6.74

Query: Any idea what pIC50 was measured for O=C(O)Cn1c2c(c3cc(F)ccc31)CN(C(=O)CCc1cccc3ccccc13)CC2 ?
Reply: 7.52

Query: Any idea what pIC50 was measured for O=C(O)Cn1c2c(c3cc(F)cc(Cl)c31)CN(C(=O)c1cccc3ccccc13)CC2 ?
Reply: 6.28
